// data source = ChEMBL document CHEMBL3124885

assay.name: Drug uptake in Hartley guinea pig CSF at 100 mg/kg, po measured at 3 hrs
Type: ADME, organism-based, Cavia porcellus, Cerebrospinal fluid
Design: dose 100 mg/kg, route oral
measurement.setup: read-out: Drug uptake
parameter.measured: concentration at 3 h (nM)
// return numeric value only (unit: nM, not printed)

Reported concentration at 3 h for `CN1C(=O)[C@]2(N=C1N)c1cc(-c3cccnc3F)ccc1O[C@H]1CCOC[C@@H]12` was 56

----------
assay.name: Drug uptake in Sprague-Dawley rat CSF at 60 mg/kg, po measured at 5 hrs
Type: ADME, organism-based, Cerebrospinal fluid
Design: dose 60 mg/kg, route oral
measurement.setup: read-out: Drug uptake
parameter.measured: concentration at 5 h (nM)
// return numeric value only (unit: nM, not printed)

Reported concentration at 5 h for `CN1C(=O)[C@]2(N=C1N)c1cc(-c3cccnc3F)ccc1O[C@H]1CCOC[C@@H]12` was 200

----------
assay.name: Dissociation constant, pKa of the compound by parallel capillary electrophoresis method
Format: physicochemical
The following molecules are shown together with reported pKa values.
Returns: the value as a bare number; no unit string appended.

>>> print(df.to_string())
                                   molecule  recorded_number
0  C[C@]12CCOC[C@@H]1[C@]1(COC(N)=N1)c1cc(-c3cc(F)cc(Cl)c3)ccc1O2              6.7

Reported pKa for `CN1C(=O)[C@]2(N=C1N)c1cc(-c3cccnc3F)ccc1O[C@H]1CCOC[C@@H]12` was 5.8

Reported pKa for C[C@@]12COCC[C@H]1Oc1ccc(-c3cccnc3F)cc1[C@@]21COC(N)=N1 (racemic) was 6.4

Reported pKa for C[C@H]1OCC[C@H]2Oc3ccc(-c4cccnc4F)cc3[C@@]3(COC(N)=N3)[C@H]12 (racemic) was 6.4

----------
assay.name: Ratio of unbound drug level in brain to plasma in Sprague-Dawley rat at 60 mg/kg, po measured at 3 hrs
Type: ADME, organism-based
Parameters: dose 60 mg/kg, route oral
measurement.setup: brain and plasma (unbound), read-out: K(p,uu,brain)
parameter.measured: Kp uu at 3 h
Returns: the value as a bare number; no unit string appended.

Reported Kp uu at 3 h for `CN1C(=O)[C@]2(N=C1N)c1cc(-c3cccnc3F)ccc1O[C@H]1CCOC[C@@H]12` was 0.03

----------
assay.name: Ratio of unbound drug level in brain to plasma in Hartley guinea pig at 30 mg/kg, po measured at 3 hrs
Assay type: ADME, organism-based, Cavia porcellus
Set-up: dose 30 mg/kg, route oral
measurement.setup: brain and plasma (unbound), read-out: K(p,uu,brain)
parameter.measured: Kp uu at 3 h
Returns: the value as a bare number; no unit string appended.

Reported Kp uu at 3 h for `CN1C(=O)[C@]2(N=C1N)c1cc(-c3cccnc3F)ccc1O[C@H]1CCOC[C@@H]12` was 1.6

----------
assay.name: Ratio of unbound drug level in brain to plasma in Sprague-Dawley rat at 60 mg/kg, po measured at 5 hrs
Format: ADME, organism-based
Design: dose 60 mg/kg, route oral
measurement.setup: brain and plasma (unbound), read-out: K(p,uu,brain)
parameter.measured: Kp uu at 5 h
Returns: the value as a bare number; no unit string appended.

Reported Kp uu at 5 h for `CN1C(=O)[C@]2(N=C1N)c1cc(-c3cccnc3F)ccc1O[C@H]1CCOC[C@@H]12` was 0.029
